For each record, write down the corresponding pIC50.
Target: Cysteine protease falcipain-3 (Plasmodium falciparum, UniProt Q9NAW4)
Sequence (Q9NAW4 whole entry): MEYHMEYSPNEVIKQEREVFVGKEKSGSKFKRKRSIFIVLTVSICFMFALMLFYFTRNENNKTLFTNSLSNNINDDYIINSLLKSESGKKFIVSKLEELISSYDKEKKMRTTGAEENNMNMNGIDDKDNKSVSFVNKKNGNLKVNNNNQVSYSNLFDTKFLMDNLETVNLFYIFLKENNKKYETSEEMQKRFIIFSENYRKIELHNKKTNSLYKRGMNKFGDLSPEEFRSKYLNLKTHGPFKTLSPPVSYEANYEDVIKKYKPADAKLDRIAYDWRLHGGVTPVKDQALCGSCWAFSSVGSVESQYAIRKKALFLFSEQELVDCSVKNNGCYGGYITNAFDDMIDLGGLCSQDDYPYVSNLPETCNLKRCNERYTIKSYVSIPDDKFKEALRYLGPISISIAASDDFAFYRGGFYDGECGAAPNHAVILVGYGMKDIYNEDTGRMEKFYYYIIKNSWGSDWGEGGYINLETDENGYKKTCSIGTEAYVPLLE
Assay: Inhibition of recombinant Plasmodium falciparum falcipain-3 expressed in bacterial expression system using ZFR-AMC as substrate measured for 30 mins by fluorimetric assay
Scale note: pIC50 = -log10(concentration in M).

Exercise: Can you look up the measured pIC50 of O=C(NCCCNC(=O)c1cc2ccccc2[nH]1)c1ccc(-c2ccccc2)cc1 for me?
Solution: 5.07

Exercise: Can you look up the measured pIC50 of CN1CCCc2cc(CCNC(=O)C(=O)Nc3ccc4c(c3)OCO4)ccc21 for me?
Solution: 5.00

###

Biological target: Falcipain 2 (Plasmodium falciparum) (UniProt Q9N6S8)
Sequence (Q9N6S8 as listed by the source): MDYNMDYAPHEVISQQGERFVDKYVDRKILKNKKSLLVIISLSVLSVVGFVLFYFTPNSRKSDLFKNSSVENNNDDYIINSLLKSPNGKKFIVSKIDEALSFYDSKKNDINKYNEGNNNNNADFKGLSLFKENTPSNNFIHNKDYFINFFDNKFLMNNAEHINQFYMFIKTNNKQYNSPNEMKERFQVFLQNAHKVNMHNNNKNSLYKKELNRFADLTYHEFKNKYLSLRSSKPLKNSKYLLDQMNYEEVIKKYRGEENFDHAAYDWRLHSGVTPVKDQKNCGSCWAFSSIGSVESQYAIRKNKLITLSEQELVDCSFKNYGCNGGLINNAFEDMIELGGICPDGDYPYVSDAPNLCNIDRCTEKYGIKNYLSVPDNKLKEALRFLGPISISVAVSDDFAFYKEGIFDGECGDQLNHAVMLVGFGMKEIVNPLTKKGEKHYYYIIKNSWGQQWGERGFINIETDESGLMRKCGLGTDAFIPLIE
Experiment: Inhibition of recombinant Plasmodium falciparum falcipain-2 expressed in bacterial expression system using ZFR-AMC as substrate at 100 uM measured for 30 mins by fluorimetric assay relative to control
The label depends only on inhibition: 1 if it is at least 40%, 0 if it is smaller.

Exercise: Item O=C(Nc1ccc([C@@H]2C=c3ccccc3=N2)cc1)[C@@H]1CCCN1C1CCOCC1 with inhibition of 40% or above?
Solution: 1

Exercise: Item O=C(CN1CCN(C2=NCCC=N2)CC1)Nc1cccc2ccccc12 with inhibition of 40% or above?
Solution: 0

Exercise: Item O=C(CN1CCC(C2N=c3ccccc3=N2)CC1)Nc1cccc2ccccc12 with inhibition of 40% or above?
Solution: 1

Exercise: Item CN1CCCc2cc(CCNC(=O)C(=O)Nc3ccc4c(c3)OCO4)ccc21 with inhibition of 40% or above?
Solution: 1

Exercise: Item O=C(NCCCn1nc2n(c1=O)CCCC2)c1cc2c(cc1O)CCCC2 with inhibition of 40% or above?
Solution: 1
